- Test system: HCV 1b-genotype replicon Con1b
- assayMethodText: HCV replicon luciferase assay, HCV-1b replicon (Huh7-Con1b, firefly luciferase)
- Format: cell-based
- assaySetup: Hepatitis C virus, Huh7-Con1b cells, 72 hours
- From the text: In brief, three stably-transfected cell lines containing different HCV genotypes of replicons were used to test activity of the compounds in inhibiting the HCV replication. A Huh7-Con1b cell line contained an HCV 1b-genotype replicon Con1b and a reporter gene of firefly luciferase. […] The effect of the compounds described herein on the HCV replication can be evaluated through a chemiluminescence detection of the expression of the above two luciferase genes. […]
EC50 values for the compounds below.
quantityName: EC50 (pM)

COC(=O)N[C@H](C(=O)N1C[C@H](F)C[C@H]1C(=O)Nc1ccc2c(c1)OC(c1cc(F)cc(F)c1)n1c-2cc2cc(NC(=O)[C@@H]3C[C@H](F)CN3C(=O)[C@@H](NC(=O)OC)C(C)C)ccc21)C(C)C (some centres unmarked) [PA6018]
2.95
COC(=O)N[C@H](C(=O)N1CCC[C@H]1C(=O)Nc1ccc2c(c1)O[C@@H](c1c(F)c(F)cc(F)c1F)n1c-2cc2cc(NC(=O)[C@@H]3CCCN3C(=O)[C@@H](NC(=O)OC)C(C)C)ccc21)C(C)C [PA6031]
2.3

###

As shown below, each of these compounds has a reported CC50 at 72 h value.
- assayMethodText: CC50 by CellTiter-GLO kit, HCV-1a replicon cell
- Format: cell-based
- assaySetup: human
quantityName: CC50 at 72 h

COC(=O)N[C@H](C(=O)N1C[C@H](F)C[C@H]1C(=O)Nc1ccc2c(c1)OC(c1ccccc1)n1c-2cc2cc(NC(=O)[C@@H]3C[C@H](F)CN3C(=O)[C@@H](NC(=O)OC)C(C)C)ccc21)C(C)C (stereo partly shown) [PA6010]
> 100 nM
COC(=O)N[C@H](C(=O)N1CCC[C@H]1C(=O)Nc1ccc2c(c1)O[C@@H](c1c(F)c(F)c(F)c(F)c1F)n1c-2cc2cc(NC(=O)[C@@H]3CCCN3C(=O)[C@@H](NC(=O)OC)C(C)C)ccc21)C(C)C [PA6030]
> 100 nM
COC(=O)N[C@H](C(=O)N1C[C@H](F)C[C@H]1C(=O)Nc1ccc2c(c1)OC(c1cc(F)cc(F)c1)n1c-2cc2cc(NC(=O)[C@@H]3C[C@H](F)CN3C(=O)[C@@H](NC(=O)OC)C(C)C)ccc21)C(C)C (stereo partly shown) [PA6018]
> 100 nM
COC(=O)N[C@H](C(=O)N1CCC[C@H]1C(=O)Nc1ccc2c(c1)O[C@@H](c1cc(F)c(F)c(F)c1)n1c-2cc2cc(NC(=O)[C@@H]3CCCN3C(=O)[C@@H](NC(=O)OC)C(C)C)ccc21)C(C)C [PA6032]
> 100 nM

###

- System: HCV 1a-genetype replicon H77
- assayMethodText: HCV replicon luciferase assay, HCV-1a replicon (Huh7-H77, renilla luciferase)
- Assay type: cell-based
- assaySetup: Hepatitis C virus, Huh7-H77 cells, 72 hours
quantityName: EC50

COC(=O)N[C@H](C(=O)N1CC(F)(F)C[C@H]1C(=O)Nc1ccc2c(c1)OC(c1cc(F)cc(F)c1)n1c-2cc2cc(NC(=O)[C@@H]3CC(F)(F)CN3C(=O)[C@@H](NC(=O)OC)C(C)C)ccc21)C(C)C (some centres unmarked)
0.0534 nM
COC(=O)N[C@H](C(=O)N1CCC[C@H]1C(=O)Nc1ccc2c(c1)O[C@H](c1ccccc1)n1c-2cc2cc(NC(=O)[C@@H]3CCCN3C(=O)[C@@H](NC(=O)OC)C(C)C)ccc21)C(C)C
2.94 nM
COC(=O)N[C@H](C(=O)N1CC2(CC2)C[C@H]1C(=O)Nc1ccc2c(c1)OC(c1ccccc1)n1c-2cc2cc(NC(=O)[C@@H]3CC4(CC4)CN3C(=O)[C@@H](NC(=O)OC)C(C)C)ccc21)C(C)C (some centres unmarked)
0.03 nM
COC(=O)N[C@H](C(=O)N1CCC[C@H]1C(=O)Nc1ccc2c(c1)OC(c1cc(F)cc(F)c1)n1c-2cc2cc(NC(=O)[C@@H]3CCCN3C(=O)[C@@H](NC(=O)OC)C(C)C)ccc21)C(C)C (some centres unmarked)
0.0433 nM
COC(=O)N[C@H](C(=O)N1C[C@H](F)C[C@H]1C(=O)Nc1ccc2c(c1)OC(c1cc(F)cc(F)c1)n1c-2cc2cc(NC(=O)[C@@H]3C[C@H](F)CN3C(=O)[C@@H](NC(=O)OC)C(C)C)ccc21)C(C)C (some centres unmarked)
0.0351 nM

Cited source: patent US10640515B2
